Cited source for all entries: patent US20210386721A1

Target: PD-1/PD-L1 (Homo sapiens, UniProt Q9NZQ7)
Construct: purchased Cisbio 63ADK000CPDPEB
Sequence (Q9NZQ7 19-238 limits assumed): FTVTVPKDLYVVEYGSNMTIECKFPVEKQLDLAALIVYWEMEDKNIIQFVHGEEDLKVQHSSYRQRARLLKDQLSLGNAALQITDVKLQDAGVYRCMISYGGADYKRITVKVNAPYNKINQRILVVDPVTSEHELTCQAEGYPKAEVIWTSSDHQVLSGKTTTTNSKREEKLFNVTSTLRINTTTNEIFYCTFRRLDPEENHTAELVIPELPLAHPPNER
Test: PD-1/PD-L1 binding assay (HTRF, PPI-HTRF)
Conditions: HTRF PD1/PD-L1 binding assay kit; 10 nM Tag1-PD-L1; 25° C.
quantity-name: IC50 (nM)
Form entry: value (nM) — number only.

Query: Entry Cc1cc(/C=C/c2cccc(-c3cccc(-c4nc5cc(CN6CC[C@@H](O)C6)ccc5o4)c3C)c2C)c(C(F)(F)F)cc1CN1CC[C@@H](C(=O)O)C1 [Z-17] needs its IC50 filled in; supply it.
Reply: 1

Query: Entry COc1cc(/C=C/c2cccc(-c3cccc(Nc4nccc5cc(CN6CC[C@@H](O)C6)cnc45)c3C)c2C)c(C(F)(F)F)cc1CN1CC[C@@H](C(=O)O)C1 [Z-8] needs its IC50 filled in; supply it.
Reply: 2

Query: Entry COc1cc(/C=C/c2cccc(-c3cccc(-c4nc5cc(CN[C@@H](C)CO)cc(C#N)c5o4)c3C)c2C)c(C(F)(F)F)cc1CN1CCCC[C@H]1C(=O)O [Z-41] needs its IC50 filled in; supply it.
Reply: 2

Query: Entry COc1cc(/C=C/c2cccc(-c3cccc(NC(=O)c4cc(OC)c(CN5CC[C@@H](O)C5)cn4)c3C)c2C)c(C(F)(F)F)cc1CN1CC(C(=O)O)C1 [Z-130] needs its IC50 filled in; supply it.
Reply: 1

Query: Entry COc1cc(/C=C/c2cccc(-c3cccc(-c4nc5cc(CN6CC[C@@H](C(=O)O)C6)cc(C#N)c5o4)c3C)c2C)c(C(F)(F)F)cc1CN1CC[C@@H](O)C1 [Z-21] needs its IC50 filled in; supply it.
Reply: 1

Query: Entry COc1cc(/C=C/c2cccc(-c3cccc(-c4nc5cc(CN6CC[C@@H](O)C6)ccc5o4)c3C)c2F)c(C(F)(F)F)cc1CN1CC[C@@H](C(=O)O)C1 [Z-20] needs its IC50 filled in; supply it.
Reply: 2

Query: Entry COc1cc(/C=C/c2cccc(-c3cccc(NC(=O)c4ccc(CN5CC[C@@H](O)C5)cn4)c3C)c2C)c(C(F)(F)F)cc1CN1CCCC[C@H]1C(=O)O [Z-102] needs its IC50 filled in; supply it.
Reply: 1

Query: Entry COc1cc(/C=C/c2cccc(-c3cccc(NC(=O)c4ccc(CN5CC[C@@H](O)C5)cn4)c3Cl)c2Cl)c(C(F)(F)F)cc1CN1CC[C@@H](C(=O)O)C1 [Z-93] needs its IC50 filled in; supply it.
Reply: 2

* * *

Molecular target: PD-1/PD-L1 (Homo sapiens, UniProt Q9NZQ7)
Construct: purchased Cisbio 63ADK000CPDPEB
Experiment: PD-1/PD-L1 binding assay (HTRF, PPI-HTRF)
Conditions: HTRF PD1/PD-L1 binding assay kit; 10 nM Tag1-PD-L1; 25° C.
Task for the reader: assign each of the following compounds its reported IC50.
Form entry: value (nM) — number only.

Query: Entry COc1cc(/C=C/c2cccc(-c3cccc(NC(=O)c4ccc(CN5CC[C@@H](O)C5)cn4)c3C)c2C)c(C(F)(F)F)cc1CN1CCCC(C(=O)O)C1 (stereo partly drawn) [Z-106] needs its IC50 filled in; supply it.
Reply: 1

Query: Entry Cc1cc(/C=C/c2nccc(-c3cccc(NC(=O)c4ccc(CN5CC[C@@H](O)C5)cn4)c3C)c2Cl)c(Cl)cc1CN1CCCC[C@H]1C(=O)O [Z-83] needs its IC50 filled in; supply it.
Reply: 1

Query: Entry COc1cc(/C=C/c2cccc(-c3cccc(-c4nc5cc(CN6CC[C@@H](C(=O)O)C6)cc(C#N)c5o4)c3C)c2C)c(C(F)(F)F)cc1CNCCO [Z-33] needs its IC50 filled in; supply it.
Reply: 1

Query: Entry COc1cc(/C=C/c2cccc(-c3cccc(NC(=O)c4ccc(CN5CC[C@@H](O)C5)cn4)c3C)c2C)c(C(F)(F)F)cc1CN1CC[C@@H](C(=O)O)C1 [Z-84] needs its IC50 filled in; supply it.
Reply: 1

Query: Entry Cc1cc(/C=C/c2nccc(-c3cccc(NC(=O)c4ccc(CNCCO)cn4)c3C)c2C#N)c(Cl)cc1CN1CCCC[C@H]1C(=O)O [Z-2] needs its IC50 filled in; supply it.
Reply: 1

Query: Entry COc1cc(C(=O)Nc2cccc(-c3cccc(/C=C/c4cc(CN5CC[C@@H](C(=O)O)C5)ccc4C(F)(F)F)c3C)c2C)ncc1CN1CC[C@@H](O)C1 [Z-124] needs its IC50 filled in; supply it.
Reply: 1

Query: Entry COc1cc(/C=C/c2cccc(-c3cccc(NC(=O)c4cc(OC)c(CN5CC[C@@H](O)C5)cn4)c3C)c2C)c(C(F)(F)F)cc1CNC[C@@H](O)CC(=O)O [Z-118] needs its IC50 filled in; supply it.
Reply: 1

Query: Entry Cc1cc(/C=C/c2nccc(-c3cccc(NC(=O)c4ccc(CN5CC[C@@H](O)C5)cn4)c3Cl)c2C#N)c(Cl)cc1CN1CCCC[C@H]1C(=O)O [Z-81] needs its IC50 filled in; supply it.
Reply: 1

Query: Entry Cc1c(NC(=O)c2ccc(CN3CC[C@@H](O)C3)cn2)cccc1-c1ccnc(/C=C/c2cc3nc(CN4CC[C@H](C(=O)O)C4)oc3cc2Cl)c1C#N [Z-64] needs its IC50 filled in; supply it.
Reply: 18

Query: Entry COc1cc(/C=C/c2cccc(-c3cccc(-c4nc5cc(CN6CC[C@H](C(=O)O)C6)ccc5o4)c3C)c2C)c(C(F)(F)F)cc1CN1CC[C@H](O)C1 [Z-32] needs its IC50 filled in; supply it.
Reply: 2

* * *

Task for the reader: assign each of the following molecules its reported IC50.
Biological target: PD-1/PD-L1 (Homo sapiens, UniProt Q9NZQ7)
Construct: purchased Cisbio 63ADK000CPDPEB
Assay: PD-1/PD-L1 binding assay (HTRF, PPI-HTRF)
Conditions: HTRF PD1/PD-L1 binding assay kit; 10 nM Tag1-PD-L1; 25° C.
Form entry: value (nM) — number only.

Query: Output reported IC50 of the molecule Cc1cc(/C=C/c2nccc(-c3cccc(-c4nc5c(s4)CN(C(=O)CN(C)C)CC5)c3C)c2C#N)c(Cl)cc1CN1CC[C@@H](C(=O)O)C1 [Z-61] on PD-1/PD-L1 (Homo sapiens, UniProt Q9NZQ7).
Reply: 2

Query: Output reported IC50 of the molecule Cc1cc(/C=C/c2nccc(-c3cccc(NC(=O)c4ccc(CN5CC[C@@H](O)C5)cn4)c3Cl)c2C)c(Cl)cc1CN1CC[C@@H](C(=O)O)C1 [Z-76] on PD-1/PD-L1 (Homo sapiens, UniProt Q9NZQ7).
Reply: 1

Query: Output reported IC50 of the molecule COc1cc(/C=C/c2cccc(-c3cccc(NC(=O)c4ccc(CN5CC[C@@H](O)C5)cn4)c3C)c2C#N)c(C(F)(F)F)cc1CN1CC[C@@H](C(=O)O)C1 [Z-94] on PD-1/PD-L1 (Homo sapiens, UniProt Q9NZQ7).
Reply: 1

Query: Output reported IC50 of the molecule COc1cc(/C=C/c2cccc(-c3cccc(NC(=O)c4ccc(CN5CC[C@@H](O)C5)cn4)c3Cl)c2C)c(C(F)(F)F)cc1CN1CCC(C(=O)O)CC1 [Z-89] on PD-1/PD-L1 (Homo sapiens, UniProt Q9NZQ7).
Reply: 1

Query: Output reported IC50 of the molecule COc1cc(/C=C/c2nccc(-c3cccc(Nc4nccc5cc(CN6CC[C@@H](O)C6)cnc45)c3C)c2C#N)c(C(F)(F)F)cc1CN1CC[C@@H](C(=O)O)C1 [Z-13] on PD-1/PD-L1 (Homo sapiens, UniProt Q9NZQ7).
Reply: 2

Query: Output reported IC50 of the molecule Cc1cc(/C=C/c2cccc(-c3cccc(NC(=O)c4ccc(CN5CC[C@@H](O)C5)cn4)c3C)c2C)c(C(F)(F)F)cc1CN1CC[C@@H](C(=O)O)C1 [Z-90] on PD-1/PD-L1 (Homo sapiens, UniProt Q9NZQ7).
Reply: 1

* * *

Target: PD-1/PD-L1 (Homo sapiens, UniProt Q9NZQ7)
Construct: purchased Cisbio 63ADK000CPDPEB
Assay: PD-1/PD-L1 binding assay (HTRF, PPI-HTRF)
Settings: HTRF PD1/PD-L1 binding assay kit; 10 nM Tag1-PD-L1; 25° C.
quantity-name: log10(IC50) (log10 of the value in nM)
Please interpret these as log10 of IC50 where IC50 is in nM.

Query: Entry Cc1cc(/C=C/c2cccc(-c3cccc(NC(=O)c4ccc(CN5CC[C@@H](O)C5)cn4)c3C)c2C)c(Cl)cc1CN1CC[C@@H](C(=O)O)C1 [Z-86] needs its log10(IC50) filled in; supply it.
Reply: 0.00

Query: Entry COc1cc(C(=O)Nc2cccc(-c3cccc(/C=C/c4cc(OC)c(CN5CCC[C@H]5C(=O)O)cc4C(F)(F)F)c3C)c2C)ncc1CNCCO [Z-112] needs its log10(IC50) filled in; supply it.
Reply: 0.00

Query: Entry Cc1cc(/C=C/c2nccc(-c3cccc(NC(=O)c4ccc(CN5CC[C@@H](O)C5)cn4)c3C)c2C#N)c(C(F)(F)F)cc1CN1CC[C@@H](C(=O)O)C1 [Z-101] needs its log10(IC50) filled in; supply it.
Reply: 0.00

Query: Entry COc1cc(/C=C/c2cccc(-c3cccc(NC(=O)c4cc(CN5CC[C@@H](O)C5)ccn4)c3C)c2C)c(C(F)(F)F)cc1CN1CC[C@@H](C(=O)O)C1 [Z-120] needs its log10(IC50) filled in; supply it.
Reply: 0.00

Query: Entry Cc1cc(/C=C/c2cccc(-c3cccc(-c4nc5cc(CN6CC[C@@H](C(=O)O)C6)cc(C#N)c5o4)c3C)c2C)c(C(F)(F)F)cc1CN1CC[C@@H](O)C1 [Z-18] needs its log10(IC50) filled in; supply it.
Reply: 0.00

Query: Entry COc1cc(/C=C/c2cccc(-c3cccc(-c4ccc(CNC[C@@H]5CCC(=O)N5)c(OC)n4)c3C)c2C)c(C(F)(F)F)cc1CN1CC[C@@H](C(=O)O)C1 [Z-54] needs its log10(IC50) filled in; supply it.
Reply: 0.00

Query: Entry COc1cc(/C=C/c2cccc(-c3cccc(-c4nc5c(C#N)cc(CN6CC[C@@H](C(=O)O)C6)cn5n4)c3C)c2C)c(C(F)(F)F)cc1CN1CC[C@@H](O)C1 [Z-53] needs its log10(IC50) filled in; supply it.
Reply: 0.00

Query: Entry COc1cc(/C=C/c2cccc(-c3cccc(Nc4nccc5cc(CN6CC[C@@H](O)C6)cnc45)c3C)c2C)c(C(F)(F)F)cc1CN1CCC[C@H]1C(=O)O [Z-11] needs its log10(IC50) filled in; supply it.
Reply: 0.00

Query: Entry COc1cc(/C=C/c2cccc(-c3cccc(-c4cnc(CN5CC[C@@H](O)C5)c(OC)n4)c3C)c2C)c(C(F)(F)F)cc1CN1CC[C@@H](C(=O)O)C1 [Z-57] needs its log10(IC50) filled in; supply it.
Reply: 0.00

Query: Entry COC(=O)[C@@H]1CCN(Cc2cc(C(F)(F)F)c(/C=C/c3cccc(-c4cccc(NC(=O)c5cc(OC)c(CN6CC[C@@H](O)C6)cn5)c4C)c3C)cc2OC)C1 [Z-133] needs its log10(IC50) filled in; supply it.
Reply: 0.30

Query: Entry COc1cc(/C=C/c2ccnc(-c3cccc(-c4nc5cc(CN6CC[C@@H](O)C6)cc(C#N)c5o4)c3C)c2Cl)c(C(F)(F)F)cc1CN1CC[C@@H](C(=O)O)C1 [Z-52] needs its log10(IC50) filled in; supply it.
Reply: 0.00

Query: Entry COc1cc(/C=C/c2cccc(-c3cccc(-c4nc5cc(CN6CC[C@@H](C(=O)O)C6)cc(C#N)c5o4)c3C)c2F)c(C(F)(F)F)cc1CN1CC[C@@H](O)C1 [Z-25] needs its log10(IC50) filled in; supply it.
Reply: 0.00

Query: Entry Cc1cc(/C=C/c2nccc(-c3cccc(NC(=O)c4ccc(CN5CCOCC5)cn4)c3C)c2C#N)c(Cl)cc1CN1CCCC[C@H]1C(=O)O [Z-71] needs its log10(IC50) filled in; supply it.
Reply: 0.70

Query: Entry Cc1cc(/C=C/c2nccc(-c3cccc(-c4nc5cc(CN6CC[C@@H](C(=O)O)C6)cc(Cl)c5o4)c3C)c2C#N)c(C(F)(F)F)cc1CN1CC[C@@H](O)C1 [Z-48] needs its log10(IC50) filled in; supply it.
Reply: 0.30

Query: Entry COc1cc(/C=C/c2cccc(-c3cccc(-c4nc(OC)c(CNC[C@@H]5CCC(=O)N5)cc4Cl)c3C)c2C)c(C(F)(F)F)cc1CN1CC[C@@H](C(=O)O)C1 [Z-55] needs its log10(IC50) filled in; supply it.
Reply: 0.48

Query: Entry Cc1c(NC(=O)c2ccc(CNCCO)cn2)cccc1-c1ccnc(/C=C/c2ccc3c(c2)CCN(CCO)C3)c1C#N [Z-63] needs its log10(IC50) filled in; supply it.
Reply: 1.51

Query: Entry COc1cc(/C=C/c2cccc(-c3cccc(-c4nc5c(c(OC)n4)CN(C[C@@H]4CCC(=O)N4)CC5)c3C)c2C)c(C(F)(F)F)cc1CN1CC[C@@H](C(=O)O)C1 [Z-60] needs its log10(IC50) filled in; supply it.
Reply: 0.30

Query: Entry COc1cc(/C=C/c2cccc(-c3cccc(NC(=O)c4ccc(CN5CC[C@@H](O)C5)cn4)c3C#N)c2Cl)c(C(F)(F)F)cc1CN1CC[C@@H](C(=O)O)C1 [Z-104] needs its log10(IC50) filled in; supply it.
Reply: 0.00

Query: Entry COc1cc(/C=C/c2cccc(-c3cccc(NC(=O)c4cc(OC)c(CN5CC[C@@H](O)C5)cn4)c3C)c2C)c(C(F)(F)F)cc1CN1CCC(C(=O)O)CC1 [Z-122] needs its log10(IC50) filled in; supply it.
Reply: 0.00

Query: Entry COc1cc(/C=C/c2cccc(-c3cccc(-c4nc5cc(CN6CC[C@H](C(=O)O)C6)cc(C#N)c5o4)c3C)c2C)c(C(F)(F)F)cc1CN1CC[C@@H](O)C1 [Z-35] needs its log10(IC50) filled in; supply it.
Reply: 0.30

Query: Entry Cc1cc(/C=C/c2nccc(-c3cccc(Nc4nccc5cc(CN6CC[C@@H](O)C6)cnc45)c3C)c2C#N)c(Cl)cc1CN1CCCC[C@H]1C(=O)O [Z-7] needs its log10(IC50) filled in; supply it.
Reply: 0.00

Query: Entry COc1cc(/C=C/c2cccc(-c3cccc(-c4nc5cc(CN6CC[C@@H](O)C6)cc(C#N)c5o4)c3C)c2C#N)c(C(F)(F)F)cc1CN1CC[C@@H](C(=O)O)C1 [Z-43] needs its log10(IC50) filled in; supply it.
Reply: 0.00
